- protocolText: Permeability by passive diffusion (PAMPA)
- Assay type: in vitro ADME
- conditionInfo: PAMPA, pH 7.4, 10 μM, pH 7.4, 37° C., 4 hours, Table 9
measurementLabel: Papp at 4 h, 10 μM (×10⁻⁶ cm/s)
Answer format: numeric, ×10⁻⁶ cm/s implied, no suffix.

Q. For the compound shown here, CC(C)(O)CCCC1(C2=CCC3/C(=C/C=C4/CC(O)C[C@H](O)C4)CCC[C@]23C)CC1 (stereo partly shown) , give the reported Papp at 4 h, 10 μM.
A. 36

* * *

- protocolText: Solubility in aqueous buffer
- Type: physicochemical
- conditionInfo: pH 7.4, aqueous buffer, kinetic from dmso stock
measurementLabel: solubility (µg/mL)
Answer format: numeric, µg/mL implied, no suffix.

Q. For the compound shown here, C[C@]12CCC/C(=C\C=C3\CC(O)C[C@H](O)C3)C1CC=C2C1(C/C=C\C(O)(C(F)(F)F)C(F)(F)F)CC1 (stereo partly shown) , give the reported solubility.
A. 2.17

Q. Would you mind doing CC(C)(O)CCCC1(C2=CCC3/C(=C/C=C4/CC(O)C[C@H](O)C4)CCC[C@]23C)CC1 (stereo partly shown) as well?
A. 8.27

Q. Would you mind doing C[C@]12CCC/C(=C\C=C3\CC(O)C[C@H](O)C3)C1CC=C2C1(CC#CC(O)(C(F)(F)F)C(F)(F)F)CC1 (stereo partly shown) as well?
A. 0.674

Q. Would you mind doing C=C1/C(=C\C=C2/CCC[C@]3(C)C(C4(C/C=C\C(O)(C(F)(F)F)C(F)(F)F)CC4)=CCC23)CC(O)C[C@@H]1O (stereo partly shown) as well?
A. 0.533
